The reported measurements were obtained from paper PMC2756588.

# tested-system: Rvs167, P39743
# Sequence (P39743 419-482): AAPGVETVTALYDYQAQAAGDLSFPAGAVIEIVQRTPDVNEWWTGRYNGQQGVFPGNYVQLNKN
# protocol-text: SPOT array
# test-settings: median of control spots 2707
measure-name: SPOT intensity

[
  {
    "binder": "PSRRAPLQLPQLVNK",
    "SPOT intensity": 0
  }
]

1: DKKTKPTPPPKPSHL
2: AKDLIVPRRPEWNEG
[Q] Determine, for 1 and 2 , which has the greater value of SPOT intensity. Respond with the label that goes with your answer.
[A] 2
